Measured values drawn from patent US7297704B2 for this set.

Target protein (sequence): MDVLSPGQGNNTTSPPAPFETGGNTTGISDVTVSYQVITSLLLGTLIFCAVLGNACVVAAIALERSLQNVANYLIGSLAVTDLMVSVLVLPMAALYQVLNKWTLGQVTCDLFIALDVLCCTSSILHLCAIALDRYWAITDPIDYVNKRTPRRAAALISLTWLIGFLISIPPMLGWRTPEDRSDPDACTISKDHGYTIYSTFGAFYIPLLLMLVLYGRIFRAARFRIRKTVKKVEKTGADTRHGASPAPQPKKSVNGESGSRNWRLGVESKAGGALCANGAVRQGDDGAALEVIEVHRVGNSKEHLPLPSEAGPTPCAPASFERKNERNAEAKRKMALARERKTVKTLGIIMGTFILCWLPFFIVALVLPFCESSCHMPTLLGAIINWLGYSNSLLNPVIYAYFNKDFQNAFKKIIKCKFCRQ
pKi: −log10 of the molar value. Where a name gives a salt, the structure may show the parent alone.
readout: pKi

P = Cc1ccc2c3c(ccc2n1)OC[C@H](CN(C[C@@H]1CCc2[nH]c4ccc(F)cc4c2C1)C(C)C)O3 [Example 57, monohydrochloride monohydrate]
Q = Cc1ccc2c3c(ccc2n1)OC[C@H](CNC[C@@H]1CCc2[nH]c4ccc(F)cc4c2C1)O3 [Example 5]
R = Cc1ccc2c3c(ccc2n1)OC[C@H](CNC[C@@H]1CCc2[nH]c4c(F)cc(F)cc4c2C1)O3.Cl.Cl [Example 9, dihydrochloride]
Problem: # desc sort on pKi across 3 compounds Please reply with the labels ordered as requested. Many thanks.
Result: Q, R, P
